- tested.system: Integrin beta-1 (Homo sapiens) + Integrin alpha-4 (Homo sapiens) (UniProt P13612+P05556)
- Sequence (P05556 whole entry, looked up): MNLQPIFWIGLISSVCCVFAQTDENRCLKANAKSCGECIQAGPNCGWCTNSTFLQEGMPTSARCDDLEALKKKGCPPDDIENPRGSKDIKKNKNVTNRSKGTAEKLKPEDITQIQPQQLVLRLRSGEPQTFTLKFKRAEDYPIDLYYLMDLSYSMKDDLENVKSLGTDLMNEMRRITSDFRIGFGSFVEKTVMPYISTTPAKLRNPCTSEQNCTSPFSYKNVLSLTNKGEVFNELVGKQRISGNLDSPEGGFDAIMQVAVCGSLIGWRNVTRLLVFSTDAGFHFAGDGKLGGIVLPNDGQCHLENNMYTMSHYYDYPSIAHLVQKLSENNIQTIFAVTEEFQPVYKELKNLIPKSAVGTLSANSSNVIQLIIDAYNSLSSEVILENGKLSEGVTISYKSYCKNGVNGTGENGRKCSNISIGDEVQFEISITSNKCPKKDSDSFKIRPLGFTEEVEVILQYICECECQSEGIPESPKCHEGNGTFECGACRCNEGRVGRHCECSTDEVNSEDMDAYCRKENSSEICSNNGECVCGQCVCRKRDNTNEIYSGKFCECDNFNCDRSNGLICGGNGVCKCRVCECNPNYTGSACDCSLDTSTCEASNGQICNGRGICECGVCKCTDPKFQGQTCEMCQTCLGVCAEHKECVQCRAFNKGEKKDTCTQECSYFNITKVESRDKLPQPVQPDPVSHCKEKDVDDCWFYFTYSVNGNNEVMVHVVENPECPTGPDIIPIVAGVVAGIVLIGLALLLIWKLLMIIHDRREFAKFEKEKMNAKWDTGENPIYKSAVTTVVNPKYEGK
- Sequence (P13612 whole entry, looked up): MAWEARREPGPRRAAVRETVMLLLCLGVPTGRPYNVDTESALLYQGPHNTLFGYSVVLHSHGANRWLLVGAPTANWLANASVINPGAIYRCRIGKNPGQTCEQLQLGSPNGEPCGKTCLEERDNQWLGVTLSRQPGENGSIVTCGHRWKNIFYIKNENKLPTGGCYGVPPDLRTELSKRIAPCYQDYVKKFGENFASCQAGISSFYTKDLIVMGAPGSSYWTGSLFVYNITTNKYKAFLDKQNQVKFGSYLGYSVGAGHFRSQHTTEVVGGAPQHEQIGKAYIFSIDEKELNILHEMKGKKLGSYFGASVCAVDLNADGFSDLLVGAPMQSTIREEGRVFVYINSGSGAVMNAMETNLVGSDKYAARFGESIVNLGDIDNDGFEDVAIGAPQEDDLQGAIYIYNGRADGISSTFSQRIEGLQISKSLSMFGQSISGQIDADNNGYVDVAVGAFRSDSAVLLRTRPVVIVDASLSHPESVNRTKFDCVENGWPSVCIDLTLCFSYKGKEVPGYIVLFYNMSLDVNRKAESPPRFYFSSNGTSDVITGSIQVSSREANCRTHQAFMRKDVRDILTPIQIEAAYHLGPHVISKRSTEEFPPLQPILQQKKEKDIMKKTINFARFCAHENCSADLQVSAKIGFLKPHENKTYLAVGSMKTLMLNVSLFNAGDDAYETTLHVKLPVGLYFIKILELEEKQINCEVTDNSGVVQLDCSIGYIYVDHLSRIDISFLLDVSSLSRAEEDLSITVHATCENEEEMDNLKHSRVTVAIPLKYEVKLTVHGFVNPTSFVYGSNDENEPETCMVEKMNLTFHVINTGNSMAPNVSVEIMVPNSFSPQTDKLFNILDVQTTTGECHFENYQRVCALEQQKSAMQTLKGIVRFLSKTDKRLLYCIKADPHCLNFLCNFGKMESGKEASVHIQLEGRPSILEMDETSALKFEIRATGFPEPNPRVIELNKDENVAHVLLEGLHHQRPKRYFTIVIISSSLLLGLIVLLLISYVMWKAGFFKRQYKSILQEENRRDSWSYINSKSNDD
- protocol.description: inhibition of HUTS-21 binding to VLA-4, pilot screen, VLA-4 allosteric modulator project, U937 cells, HUTS-21 mAb, flow cytometry, validation set (AID 2674);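 also: antibody binding induced by the VLA-4 ligand LDV present at three times its Kd; 0% = LDV ligand with antibody and no compound and 100% = antibody without LDV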
- conditions: HUTS-21 LIBS mAb binding, at 6.7 µM, stronger effect = higher value, binding induced by LDV ligand
Calls of active or inactive are those of the source.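 The calls were made as follows: active = inhibition above 50%, about 3 SD of the validation set; inactive = the rest.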
reported.metric: inhibition

1. CCC12CN3CC(CC)(CN(C1)C31C(=O)N(C)c3ccc(C)cc31)C2=O (stereo unspecified) ... -2.82% (inactive)
2. Clc1ccc(OCCCN2CCCCC2)c(Br)c1 ... 4.42% (inactive)
3. CCc1cc(=O)oc2cc(OCC=C(C)C)ccc12 ... 26.9% (inactive)
4. O=C(c1ccc(O)cc1)c1ccc(O)cc1O ... 4.42% (inactive)
5. CC(=O)c1cn(C)c(=O)[nH]c1=O ... -7.25% (inactive)
6. CC12CCC(C(=O)Nc3ccccc3Br)(C/C1=N\O)C2(C)C (stereo unspecified) ... -6.77% (inactive)
7. COc1ccc(CCN2CCC(Nc3nc4ccccc4n3Cc3ccc(F)cc3)CC2)cc1 ... 16.3% (inactive)
8. COc1ccccc1C(CC(=O)Nc1ccccc1C)c1ccc(OC(C)C)cc1 (stereo unspecified) ... 9.95% (inactive)
9. CC1(C)NC(C(=O)O)Cc2c1[nH]c1ccccc21 (stereo unspecified) ... 5.36% (inactive)
10. O=S(=O)(NCCCCCNS(=O)(=O)c1ccccc1)c1ccccc1 ... -13.3% (inactive)
11. Cc1nc2sccn2c(=O)c1CCN1CCC(=C(c2ccc(F)cc2)c2ccc(F)cc2)CC1 ... 2.29% (inactive)
12. C=CCNC(=S)N1CCc2c([nH]c3ccccc23)C1C (stereo unspecified) ... 15.1% (inactive)
13. C=CCc1ccc(OCC(O)COc2ccc(CC=C)cc2OC)c(OC)c1 ... 7.76% (inactive)
14. CCOC(=O)c1ccccc1NC(=O)c1ccc(F)cc1 ... 10.9% (inactive)
15. O=C1Nc2ccc3sc4ccccc4c3c2C1=O ... 9.63% (inactive)
16. C/C(=N/N1CCN(Cc2cccc3ccccc23)CC1)c1cccnc1 ... -1.17% (inactive)
17. C/C(NC(=O)c1cccs1)=C1\C(=O)C[C@@H]2[C@H]1C2(C)C ... 0.59% (inactive)
18. C=CCc1cccc2cc(C(=O)Nc3ccc(CC(=O)O)cc3)c(=O)oc12 ... -2.11% (inactive)
19. CNS(=O)(=O)c1ccc(C)cc1 ... 6.29% (inactive)
20. Cc1ccsc1/C=N\NC(=O)c1ccc2c(c1)OCO2 ... 10.9% (inactive)
21. COC(=O)c1ccc(COc2ccc3c(C)c(C)c(=O)oc3c2C)o1 ... 14.7% (inactive)
22. C#CCN1C(=O)C(O)(CC(=O)c2ccc(OC)c(OC)c2)c2ccccc21 (stereo unspecified) ... 11% (inactive)
23. O=c1ccn([C@@H]2O[C@H](CO)[C@@H](O)[C@H]2O)c(=O)[nH]1 ... 11.7% (inactive)
24. CC(C)Cn1c(=S)[nH]c2cc(C(=O)O)ccc2c1=O ... -1.17% (inactive)
25. CC(=O)N(CCC1(C(C)C)CCOC(C)(C)C1)Cc1ccco1 (stereo unspecified) ... -16.8% (inactive)
26. CC[C@H](CO)NCCN[C@H](CC)CO ... -2.11% (inactive)
27. O=C(Nc1cccc(-c2nc3ncccc3o2)c1)c1ccccc1 ... 2.3% (inactive)
28. CC(=O)OCC(OC(C)=O)C(OC(C)=O)C(OC(C)=O)C(=O)Nc1cccc(C)c1 (stereo unspecified) ... -4.52% (inactive)
29. O=C1OCCN1/N=C/c1ccc([N+](=O)[O-])o1 ... 3.49% (inactive)
30. CCc1cc2c(=O)c(-c3ccc(F)cc3)c(C)oc2cc1OCC(=O)O ... 6.81% (inactive)
31. COc1ccc(CNC(=O)C2CCN(C(=O)[C@@H](CC(C)C)NC(=O)OC(C)(C)C)CC2)cc1 ... 14.7% (inactive)
32. COc1ccc(CN(C)CCc2ccccn2)cc1OC ... -15.4% (inactive)
33. Cc1cccc(C2=N/C(=C\c3cccnc3)C(=O)O2)c1 ... 5.03% (inactive)
34. Cc1nc(C)c(C)nc1C ... 12.8% (inactive)
35. c1ccc2c(c1)CCCC2C1=NCCN1 (stereo unspecified) ... -15.6% (inactive)
36. CCN(CC)Cc1c[nH]c2c(C(=O)OC)cccc12 ... 10% (inactive)
